System: CCRF-CEM
experimental.details: NCI tumour cell line growth inhibition, 48 h
Active and inactive are the calls of the source. No stated cut-off is given here; in the data, active = GI50 up to about 1.1 µM and inactive = higher.
Classes used: class 1 (active), class 0 (inactive)

| molecule | answer.label |
| --- | --- |
| Cc1ccc(S(=O)(=O)/N=C2/N(C)CCCS2(=O)=O)cc1 | class 0 |
| COc1ccc(/C=C2\CCC(CCN(C)C)(C3=CCCC3)C2=O)cc1 (stereo unspecified) | class 0 |
| O=c1c(C(c2cc(OCc3ccccc3)cc(OCc3ccccc3)c2)c2c(O)oc3ccccc3c2=O)c(O)oc2ccccc12 | class 0 |
| CCCCn1c(CSc2ccc(Cl)cc2)c(C(=O)OCC)c2cc(OC)c(Br)cc21 | class 0 |
| O=C1c2ccccc2C2(O)N(c3ccccc3)C(=S)N(c3ccccc3)C12O (stereo unspecified) | class 0 |
| O=C(O)C1(C(=O)O)CC1(C(=O)O)C(=O)O | class 0 |
| Cc1c(NC(=O)CCCl)c(=O)oc2c(C)c3occc(=O)c3cc12 | class 0 |
| O=C(CC(C(=O)c1cccs1)c1ccsc1)c1ccccc1 (stereo unspecified) | class 0 |
| CN(C)c1ccc(C(=O)NCCCCCCC(=O)NO)cc1 | class 1 |
| CN(CC1(CO)CCC1)c1cc(Cl)nc(N)n1 | class 0 |
| C=C1CN2CCc3c([nH]c4ccccc34)C2CC1CC(=O)N(C)C (stereo unspecified) | class 0 |
